Please mark True if the recorded glass transition temperature is equal to or greater than 50 °C, and False if it falls below.

Problem: For this compound, is measured glass transition temperature 50 °C or higher? */C(Cl)=C(/*)CCCCCC (repeat unit)
Solution: True

###

Reported glass transition temperature by item:
Please format your answer as a value with the unit trailing.

{"compound": "*Oc1ccc(OC2(F)C(*)(F)C(F)(F)C2(F)F)cc1 (repeat unit)", "glass transition temperature": "41.00 °C"}
{"compound": "*Oc1cccc(Oc2cccc(NC(=O)c3cc(Oc4ccc(C(=O)O)c(C(=O)Nc5cccc(*)c5)c4)ccc3C(=O)O)c2)c1 (repeat unit)", "glass transition temperature": "176.40 °C"}

Now consider a different compound.
Problem: Hello, please tell me recorded glass transition temperature for this one: *C(=O)Nc1ccc(Oc2ccc(C3(c4ccc(Oc5ccc(NC(=O)c6ccc7c(c6)C(=O)N(c6ccc(Oc8cccc(N9C(=O)c%10ccc(*)cc%10C9=O)c8)cc6)C7=O)cc5)cc4)NC(=O)c4ccccc43)cc2)cc1 (repeat unit)
Solution: 272.00 °C
